- Tested on: HeLa
- PROCEDURE_TEXT: Antiproliferative activity against human HeLa cells assessed as […] cell proliferation at 10 uM incubated for 48 hrs by WST-1 assay relative to control
- Type: functional
// f strictly below 90% in Activity; t otherwise

CC(C)S(=O)(=O)c1ccc(-c2cc(C(=O)Nc3ccccc3)n[nH]2)cc1    t
CC(C)S(=O)(=O)c1ccc(-c2cc(C(=O)N3CCC(c4ccccc4)CC3)n[nH]2)cc1    f
CC(C)S(=O)(=O)c1ccc(-c2cnc3[nH]cc(C(=O)NCc4ccccc4)c3c2)cc1    f
CS(=O)(=O)c1ccc(-c2cnc3[nH]c(C(=O)NCc4ccccc4)cc3c2)cc1    t
CC(C)S(=O)(=O)c1ccc(-c2cc(C(=O)NCc3ccccc3)n[nH]2)cc1    t
CCN(CC)c1ccc(CNC(=O)c2c[nH]c3ncc(-c4ccc(S(C)(=O)=O)cc4)cc23)cc1    f
CC(C)S(=O)(=O)c1ccc(-c2cc(C(=O)N3CCc4ccccc4C3)n[nH]2)cc1    f
CCN1CCN(C(=O)c2c[nH]c3ncc(-c4ccc(S(C)(=O)=O)cc4)cc23)CC1    t
CC(C)S(=O)(=O)c1ccc(-c2cnc3[nH]cc(CN4CCC(c5ccccc5)CC4)c3c2)cc1    f
CC(C)S(=O)(=O)c1ccc(-c2cnc3[nH]nc(C(=O)N4CCC(c5ccccc5)CC4)c3c2)cc1    f
CS(=O)(=O)c1ccc(-c2cnc(N)c(C(=O)Nc3ccccc3)n2)cc1    f
CC(C)S(=O)(=O)c1ccc(-c2cnc3[nH]c(C(=O)NCc4ccccc4)cc3c2)cc1    t
CCN1CCN(C2CCN(C(=O)c3cc4cc(-c5ccc(S(C)(=O)=O)cc5)cnc4[nH]3)CC2)CC1    t
CS(=O)(=O)c1ccc(-c2cc(C(=O)NCc3ccccc3)n[nH]2)cc1    t
CC(C)S(=O)(=O)c1ccc(-c2cc(C(=O)Nc3ccc(N(C)C)cc3)n[nH]2)cc1    t
CC(C)S(=O)(=O)c1ccc(-c2cnc3[nH]nc(C(=O)N4CCc5ccccc5C4)c3c2)cc1    t
CS(=O)(=O)c1ccc(-c2cnc3[nH]c(C(=O)N4CCC(c5ccccc5)CC4)cc3c2)cc1    t
CC(C)S(=O)(=O)c1ccc(-c2cc(-c3nnc(-c4ccccc4)o3)n[nH]2)cc1    t
CCN1CCN(C2CCN(C(=O)c3c[nH]c4ncc(-c5ccc(S(=O)(=O)C(C)C)cc5)cc34)CC2)CC1    t
CC(C)S(=O)(=O)c1ccc(-c2cnc3[nH]cc(C(=O)N4CCc5ccccc5C4)c3c2)cc1    f
CC(C)S(=O)(=O)c1ccc(-c2cnc3[nH]c(C(=O)Nc4ccc(N(C)C)cc4)cc3c2)cc1    t
CCN(CC)c1ccc(CNC(=O)c2cc3cc(-c4ccc(S(=O)(=O)C(C)C)cc4)cnc3[nH]2)cc1    t
CCN(CC)c1ccc(CNC(=O)c2cc(-c3ccc(S(=O)(=O)C(C)C)cc3)[nH]n2)cc1    f
CC(C)S(=O)(=O)c1ccc(-c2cc(-c3nc(-c4ccccc4)no3)n[nH]2)cc1    t
CC(C)S(=O)(=O)c1ccc(-c2cnc3[nH]c(C(=O)N4CCc5ccccc5C4)cc3c2)cc1    f
CCN(CC)c1ccc(CNC(=O)c2c[nH]c3ncc(-c4ccc(S(=O)(=O)C(C)C)cc4)cc23)cc1    f
CC(C)S(=O)(=O)c1ccc(-c2cnc3[nH]cc(CN4CCc5ccccc5C4)c3c2)cc1    t
CCN(CC)c1ccc(CNC(=O)c2n[nH]c3ncc(-c4ccc(S(=O)(=O)C(C)C)cc4)cc23)cc1    f
CS(=O)(=O)c1ccc(-c2cnc3[nH]cc(C(=O)N4CCC(c5ccccc5)CC4)c3c2)cc1    f
CC(C)S(=O)(=O)c1ccc(-c2cnc3[nH]c(C(=O)Nc4ccccc4)cc3c2)cc1    t
CCN1CCN(C2CCN(Cc3c[nH]c4ncc(-c5ccc(S(=O)(=O)C(C)C)cc5)cc34)CC2)CC1    f

###

Activity by entry:
- System: HT-29
- PROCEDURE_TEXT: Antiproliferative activity against human HT-29 cells assessed as […] cell proliferation at 10 uM incubated for 48 hrs in presence of 15 uM of CDDP by WST-1 assay relative to control
- Type: functional
ENDPOINT_NAME: Activity (%)

CC(C)S(=O)(=O)c1ccc(-c2cnc3[nH]c(C(=O)Nc4ccccc4)cc3c2)cc1    65
CC(C)S(=O)(=O)c1ccc(-c2cc(-c3nnc(-c4ccccc4)o3)n[nH]2)cc1    64
CC(C)S(=O)(=O)c1ccc(-c2cnc3[nH]c(C(=O)N4CCc5ccccc5C4)cc3c2)cc1    57
CC(C)S(=O)(=O)c1ccc(-c2cnc3[nH]cc(C(=O)Nc4ccc(N(C)C)cc4)c3c2)cc1    59
CCN1CCN(C2CCN(C(=O)c3c[nH]c4ncc(-c5ccc(S(=O)(=O)C(C)C)cc5)cc34)CC2)CC1    62
CS(=O)(=O)c1ccc(-c2cnc3[nH]nc(C(=O)N4CCC(c5ccccc5)CC4)c3c2)cc1    71
CC(C)S(=O)(=O)c1ccc(-c2cnc3[nH]cc(C(=O)N4CCC(c5ccccc5)CC4)c3c2)cc1    28
CS(=O)(=O)c1ccc(-c2cnc(N)c(C(=O)Nc3ccccc3)n2)cc1    16
CC(C)S(=O)(=O)c1ccc(-c2cnc3[nH]cc(CN4CCC(c5ccccc5)CC4)c3c2)cc1    46
CS(=O)(=O)c1ccc(-c2cnc3[nH]cc(C(=O)NCc4ccccc4)c3c2)cc1    64
CC(C)S(=O)(=O)c1ccc(-c2cnc3[nH]nc(C(=O)NCc4ccccc4)c3c2)cc1    60
CCN(CC)c1ccc(CNC(=O)c2c[nH]c3ncc(-c4ccc(S(C)(=O)=O)cc4)cc23)cc1    59
CCN1CCN(C2CCN(Cc3c[nH]c4ncc(-c5ccc(S(=O)(=O)C(C)C)cc5)cc34)CC2)CC1    46
CCN(CC)c1ccc(CNC(=O)c2cc(-c3ccc(S(=O)(=O)C(C)C)cc3)[nH]n2)cc1    62
CCN1CCN(Cc2c[nH]c3ncc(-c4ccc(S(=O)(=O)C(C)C)cc4)cc23)CC1    65
CC(C)S(=O)(=O)c1ccc(-c2cc(C(=O)Nc3ccc(N(C)C)cc3)n[nH]2)cc1    65
CCN1CCN(C(=O)c2cc(-c3ccc(S(C)(=O)=O)cc3)[nH]n2)CC1    65
CCN1CCN(C2CCN(C(=O)c3cc4cc(-c5ccc(S(C)(=O)=O)cc5)cnc4[nH]3)CC2)CC1    67
CC(C)S(=O)(=O)c1ccc(-c2cc(C(=O)NCc3ccccc3)n[nH]2)cc1    68
CC(C)S(=O)(=O)c1ccc(-c2cnc3[nH]cc(C(=O)NCc4ccccc4)c3c2)cc1    65
CC(C)S(=O)(=O)c1ccc(-c2cnc3[nH]c(C(=O)N4CCC(c5ccccc5)CC4)cc3c2)cc1    64
CS(=O)(=O)c1ccc(-c2cnc3[nH]c(C(=O)NCc4ccccc4)cc3c2)cc1    72
CCN1CCN(C(=O)c2c[nH]c3ncc(-c4ccc(S(C)(=O)=O)cc4)cc23)CC1    70
CCN1CCN(C(=O)c2c[nH]c3ncc(-c4ccc(S(=O)(=O)C(C)C)cc4)cc23)CC1    66
CC(C)S(=O)(=O)c1ccc(-c2cc(C(=O)Nc3ccccc3)n[nH]2)cc1    70
CC(C)S(=O)(=O)c1ccc(-c2cnc3[nH]nc(C(=O)N4CCC(c5ccccc5)CC4)c3c2)cc1    49
CC(C)S(=O)(=O)c1ccc(-c2cnc3[nH]cc(C(=O)N4CCc5ccccc5C4)c3c2)cc1    66
CC(C)S(=O)(=O)c1ccc(-c2cc(C(=O)N3CCc4ccccc4C3)n[nH]2)cc1    57
CCN(CC)c1ccc(CNC(=O)c2n[nH]c3ncc(-c4ccc(S(=O)(=O)C(C)C)cc4)cc23)cc1    57
CC(C)S(=O)(=O)c1ccc(-c2cc(-c3nc(-c4ccccc4)no3)n[nH]2)cc1    62
CC(C)S(=O)(=O)c1ccc(-c2cnc3[nH]cc(CN4CCc5ccccc5C4)c3c2)cc1    62
CS(=O)(=O)c1ccc(-c2cnc3[nH]c(C(=O)N4CCC(c5ccccc5)CC4)cc3c2)cc1    66

###

- Tested on: HeLa
- PROCEDURE_TEXT: Antiproliferative activity against human HeLa cells assessed as […] cell proliferation at 10 uM incubated for 48 hrs by WST-1 assay relative to control
- Format: functional
ENDPOINT_NAME: Activity (%)

CCN1CCN(Cc2c[nH]c3ncc(-c4ccc(S(=O)(=O)C(C)C)cc4)cc23)CC1    97
CCN1CCN(C(=O)c2c[nH]c3ncc(-c4ccc(S(=O)(=O)C(C)C)cc4)cc23)CC1    100
CC(C)S(=O)(=O)c1ccc(-c2cnc3[nH]cc(C(=O)Nc4ccc(N(C)C)cc4)c3c2)cc1    96
CC(C)S(=O)(=O)c1ccc(-c2cnc3[nH]cc(C(=O)N4CCC(c5ccccc5)CC4)c3c2)cc1    30
CCN1CCN(C(=O)c2cc(-c3ccc(S(C)(=O)=O)cc3)[nH]n2)CC1    102
